target: recombinant SHBG (Homo sapiens, UniProt P04278, P185L)
Construct: full SHBG cDNA in pRC/CMV, stably transfected CHO cells, secreted into serum-free medium; signal peptide removed on secretion; homodimer (known biology); medium diluted 1:10
assay_info: Scatchard analysis, [3H]testosterone, dextran-coated charcoal separation
pKd: −log10 of the molar value.

[
  {
    "smiles_string": "C[C@]12CC[C@H]3[C@@H](CCC4=CC(=O)CC[C@@]43C)[C@@H]1CC[C@@H]2O",
    "target": "recombinant SHBG (Homo sapiens, UniProt P04278, P185L)",
    "pKd": 8.60
  }
]
